Target or system Kappa-type opioid receptor (Cavia porcellus); recorded quantity Ki.
Give the quantity in µM, number only.

Q) Requested read-out: Ki. Entry: "CCCN1CC[C@]23Cc4nc5ccccc5cc4C[C@@]2(O)[C@H]1Cc1ccc(O)cc13"
A) 0.0257

Q) Requested read-out: Ki. Entry: "Oc1ccc2c(c1)[C@]13CCN(C[C@@H]4CCCO4)[C@H](C2)[C@]1(O)Cc1cc2ccccc2nc1C3"
A) 0.00132

Q) Requested read-out: Ki. Entry: "Oc1ccc2c(c1)[C@]13CCN(CC(F)(F)F)[C@H](C2)[C@]1(O)Cc1cc2ccccc2nc1C3"
A) 0.805

Q) Requested read-out: Ki. Entry: "COCCN1CC[C@]23Cc4nc5ccccc5cc4C[C@@]2(O)[C@H]1Cc1ccc(O)cc13"
A) 0.0149

Q) Requested read-out: Ki. Entry: "COCCCN1CC[C@]23Cc4nc5ccccc5cc4C[C@@]2(O)[C@H]1Cc1ccc(O)cc13"
A) 0.016

Q) Requested read-out: Ki. Entry: "Oc1ccc2c(c1)[C@]13CCN(C[C@H]4CCCO4)[C@H](C2)[C@]1(O)Cc1cc2ccccc2nc1C3"
A) 0.089

Q) Requested read-out: Ki. Entry: "Oc1ccc2c(c1)[C@]13CCN(CCF)[C@H](C2)[C@]1(O)Cc1cc2ccccc2nc1C3"
A) 0.0592

Q) Requested read-out: Ki. Entry: "CCOCCN1CC[C@]23Cc4nc5ccccc5cc4C[C@@]2(O)[C@H]1Cc1ccc(O)cc13"
A) 0.0367

Q) Requested read-out: Ki. Entry: "Oc1ccc2c(c1)[C@]13CCN(Cc4ccco4)[C@H](C2)[C@]1(O)Cc1cc2ccccc2nc1C3"
A) 0.0215

Q) Requested read-out: Ki. Entry: "C[C@H](O)CN1CC[C@]23Cc4nc5ccccc5cc4C[C@@]2(O)[C@H]1Cc1ccc(O)cc13"
A) 0.0563
